- procedure summary: bioavailability of IP3 in pigs: blood concentration of IP3 and AUC after intravenous, intraduodenal or oral administration
- Format: in vivo
- experimental setup: pig, in vivo, po
- Method: The blood samples were assayed for the content of IP3 and these measurements were used for the calculation of the reference data as 100% of the substance is introduced into the blood stream after an intravenous injection. Another five pigs were given the N(3-dodecanoyloxy)propyltrimethyl ammonium salt of IP3 as an intraduodenal dosing. […] Blood samples were collected at the time intervals mentioned above and the concentration of IP3 was determined in each sample. […]
Structures can show the parent of a compound that is named as a salt.
parameter: concentration at 4 h (nM)
Answers are plain numbers, in nM.

Task: # query: concentration at 4 h of entry O=P(O)(O)O[C@@H]1[C@H](OP(=O)(O)O)[C@H](O)[C@@H](O)[C@H](O)[C@H]1OP(=O)(O)O [sodium salt]
Result: 100

====

- procedure summary: bioavailability of IP3 in pigs: blood concentration of IP3 and AUC after intravenous, intraduodenal or oral administration
- Format: in vivo
- experimental setup: pig, in vivo, po
Where a name gives a salt, the structure may show the parent alone.
parameter: concentration at 0.25 h (nM)
Numbers only, in nM.

Task: Look up concentration at 0.25 h: O=P(O)(O)O[C@@H]1[C@H](OP(=O)(O)O)[C@H](O)[C@@H](O)[C@H](O)[C@H]1OP(=O)(O)O [sodium salt]
Result: 200

Values compiled from patent US5614510A.
